Target: MBP-FoxP3dN (Mus musculus, UniProt Q99JB6 188-423)
Sequence: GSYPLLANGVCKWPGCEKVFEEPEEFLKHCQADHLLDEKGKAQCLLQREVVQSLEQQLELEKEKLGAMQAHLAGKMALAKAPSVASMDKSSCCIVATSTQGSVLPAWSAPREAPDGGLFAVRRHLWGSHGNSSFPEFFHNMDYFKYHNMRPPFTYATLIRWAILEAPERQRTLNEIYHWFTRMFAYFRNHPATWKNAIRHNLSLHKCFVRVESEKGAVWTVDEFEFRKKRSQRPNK
Test: PD-seq (MBP pull-down with sequencing); 20 mM Tris-HCl pH 7.5, 100 mM NaCl, 1.5 mM MgCl2, 0.4 uM protein, 0.1 uM dsDNA library, 30 min, room temperature, amylose pull-down; high values mean tight binding
Settings: protein: recombinant; tags: His6-MBP; chain copies: 2; dsDNA, one strand shown
Whole data set: some 16,000 sequences, median “rpm ratio (pull-down/input)” near 0.5, cut for the highest 2% near 5.5. Many of the other results were omitted from the sample, so the highest values are more common in it than they were.
Overview of recorded binding signal for various sequences

Consider the reported binding signal for these sequences:
GATGATTGTTCTCCCAGCTGATGAATTGTGCAACTCGAGTAAACAAATTTTCCTAATCTTTCTGTTCAAGCGCCATCTAC	6.92 RPM ratio (pull-down/input)
GATGATTGTTCTCCCAGCTGATGAATTCAACAACTCGAGTAAACAAATTTTCCTAATCTTTCTGTTCAAGCGCCATCTAC	0.576 RPM ratio (pull-down/input)
GATGATTGTTCTCCCAGCTGATGAATTATGATTTTCGAGTAAACAAATTTTCCTAATCTTTCTGTTCAAGCGCCATCTAC	1.8 RPM ratio (pull-down/input)
GATGATTGTTCTCCCAGCTGATGAATTTTGCAACTCGAGTAAACAAATTTTCCTAATCTTTCTGTTCAAGCGCCATCTAC	6.24 RPM ratio (pull-down/input)
GATGATTGTTCTCCCAGCTGATGAATTCAGCAACTCGAGTAAACAAATTTTCCTAATCTTTCTGTTCAAGCGCCATCTAC	4.78 RPM ratio (pull-down/input)

Which binding signal value belongs to GATGATTGTTCTCCCAGCTGATGAATTTGCCAACTCGAGTAAACAAATTTTCCTAATCTTTCTGTTCAAGCGCCATCTAC ? 0.47 RPM ratio (pull-down/input)

Which binding signal value belongs to GATGATTGTTCTCCCAGCTGATGAATTCCGCAAATCGAGTAAACAAATTTTCCTAATCTTTCTGTTCAAGCGCCATCTAC ? 0.692 RPM ratio (pull-down/input)

Which binding signal value belongs to GATGATTGTTCTCCCAGCTGATGAATTCTGCAACTCGAGTAAACAAATTTTCCTAATCTTTCTGTTCAAGCGCCATCTAC ? 5.96 RPM ratio (pull-down/input)

Which binding signal value belongs to GATGATTGTTCTCCCAGCTGATGAATTACTGATTTCGAGTAAACAAATTTTCCTAATCTTTCTGTTCAAGCGCCATCTAC ? 0.523 RPM ratio (pull-down/input)

Data provenance is paper PMC12820563.
